- System name: human kinase Mps-1 (Homo sapiens (Human))
- Sequence (P33981 whole entry): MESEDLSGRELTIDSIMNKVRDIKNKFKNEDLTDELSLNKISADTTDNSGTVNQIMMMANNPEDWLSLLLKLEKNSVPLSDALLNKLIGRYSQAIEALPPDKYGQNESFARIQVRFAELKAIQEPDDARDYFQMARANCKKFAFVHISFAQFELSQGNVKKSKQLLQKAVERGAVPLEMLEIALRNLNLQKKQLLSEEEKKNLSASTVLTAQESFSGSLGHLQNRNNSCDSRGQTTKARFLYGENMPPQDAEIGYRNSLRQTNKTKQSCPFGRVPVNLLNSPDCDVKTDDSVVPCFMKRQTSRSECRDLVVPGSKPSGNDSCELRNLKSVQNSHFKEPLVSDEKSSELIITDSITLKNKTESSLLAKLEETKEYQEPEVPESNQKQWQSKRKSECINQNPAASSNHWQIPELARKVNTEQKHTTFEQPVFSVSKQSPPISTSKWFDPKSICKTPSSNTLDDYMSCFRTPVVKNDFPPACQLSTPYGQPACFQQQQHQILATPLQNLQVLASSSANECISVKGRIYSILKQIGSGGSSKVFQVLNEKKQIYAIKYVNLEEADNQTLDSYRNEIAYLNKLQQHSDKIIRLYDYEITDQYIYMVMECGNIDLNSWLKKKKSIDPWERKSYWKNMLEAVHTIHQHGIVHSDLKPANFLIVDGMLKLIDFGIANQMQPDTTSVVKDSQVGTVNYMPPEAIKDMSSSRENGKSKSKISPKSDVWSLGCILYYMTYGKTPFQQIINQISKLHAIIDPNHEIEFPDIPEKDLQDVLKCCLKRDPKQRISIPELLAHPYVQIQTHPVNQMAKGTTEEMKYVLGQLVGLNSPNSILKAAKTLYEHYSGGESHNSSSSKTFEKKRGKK
- Test summary: Mps-1 kinase assay (TR-FRET)
- Particulars: N-terminally GST-tagged human full length recombinant Mps-1; 10 μM ATP; 1 μM peptide substrate; 60 min at 22° C.; read-out: Mps1 IC50
Assay endpoint: IC50 (nM)

A = CSc1cn2c(-c3ccc(C(=O)NC4CC4)cc3)cnc2c(NCC(C)C)n1 [Example 1-2]
B = CSc1cn2c(-c3ccc(C(=O)NC4CC4)c(C)c3)cnc2c(NCCC(F)(F)F)n1 [Example 1-3]
C = CSc1cn2c(-c3ccc(C(=O)NC4CC4)c(C)c3)cnc2c(NCC(C)(C)O)n1 [Example 1-4]
From the items above, give an ordering by IC50 that starts at the lowest reported number. Sort and list the labels as requested. A, B, C
